Assay: in vitro
Conditions: human, hela cells, % viability
assayMetric: viability at 28.5 h, 10 µM (%)
Numeric only. Scale: %

Qu. In one line, give reported viability at 28.5 h, 10 µM of the entry COc1ccc(CC(=O)Nc2cccc(OC(F)(F)F)c2)cc1OC [CBK296734] .
Ans. 88.1

Qu. In one line, give reported viability at 28.5 h, 10 µM of the entry CC(C)(C)OC(=O)N1CCC(NCCc2ccccn2)C1 (stereo not drawn) [CBK304839] .
Ans. 94.2

Qu. In one line, give reported viability at 28.5 h, 10 µM of the entry CC1(C)CC(=O)C(=CNCCCn2ccnc2)C(=O)C1 [CBK261686] .
Ans. 91.3

Qu. In one line, give reported viability at 28.5 h, 10 µM of the entry O=C(COc1ccc(S(=O)(=O)N2CCCCC2)cc1)N1CCN(Cc2ccccc2)CC1 [CBK269144] .
Ans. 87.1

Qu. In one line, give reported viability at 28.5 h, 10 µM of the entry NS(=O)(=O)c1ccc(CNC(=O)c2cc(-c3ccncc3)nc3ccc(Cl)cc23)cc1 [CBK267770] .
Ans. 101

Qu. In one line, give reported viability at 28.5 h, 10 µM of the entry Cc1ccc(-c2ccc(CCC(=O)O)n2CC2CCCO2)cc1 (stereo not drawn) [CBK268636] .
Ans. 101

Qu. In one line, give reported viability at 28.5 h, 10 µM of the entry O=C(OCc1ccccc1)N1CCC2(CC1)CN(c1ccc(C(F)(F)F)cn1)CCO2 [CBK161116T] .
Ans. 95.8

Qu. In one line, give reported viability at 28.5 h, 10 µM of the entry COC(=O)CN1C(=O)S/C(=C/c2ccc(OCc3cccc(C(=O)O)c3)c(Cl)c2)C1=O [CBK265262] .
Ans. 90.2

Qu. In one line, give reported viability at 28.5 h, 10 µM of the entry CN(C)CCCN(Cc1ccco1)Cc1cccn1-c1ccccn1 [CBK283180] .
Ans. 99.8

Qu. In one line, give reported viability at 28.5 h, 10 µM of the entry CC(C)(C)OC(=O)N1CCC[C@]2(CCC(=O)N2)[C@H]1c1cccc(F)c1 [CBK283463] .
Ans. 96.7

Qu. In one line, give reported viability at 28.5 h, 10 µM of the entry O=C(Cc1ccccn1)N1CCc2ccccc2C1 [CBK200334] .
Ans. 104

Qu. In one line, give reported viability at 28.5 h, 10 µM of the entry Clc1ccc(SCCCSc2ncccn2)cc1 [CBK266400] .
Ans. 96.8

Qu. In one line, give reported viability at 28.5 h, 10 µM of the entry CC(=O)c1ccccc1NC(C#N)c1ccccc1 (stereo not drawn) [CBK057758] .
Ans. 99.6

Qu. In one line, give reported viability at 28.5 h, 10 µM of the entry Fc1ccc(-c2cncc(NCCc3cccnc3)n2)cc1Cl [CBK065745] .
Ans. 91.3

Qu. In one line, give reported viability at 28.5 h, 10 µM of the entry C[C@H]1CN(C(=O)c2cc(C3CC3)no2)[C@@H](C)CN1Cc1ccco1 [CBK281736] .
Ans. 106

Qu. In one line, give reported viability at 28.5 h, 10 µM of the entry Nc1ncc(Br)nc1N[C@@H](CO)c1ccccc1 [CBK074321] .
Ans. 102

Qu. In one line, give reported viability at 28.5 h, 10 µM of the entry Cc1cc(C)n(CCC(=O)N2CCCC2c2nc3ccccc3[nH]2)n1 (stereo not drawn) [CBK283664] .
Ans. 106

Qu. In one line, give reported viability at 28.5 h, 10 µM of the entry CCCCCNC(=O)NCCC1=CCCCC1 [CBK043796] .
Ans. 96.9

Qu. In one line, give reported viability at 28.5 h, 10 µM of the entry CN1CCN(C(=O)c2cnn(-c3ccccc3)c2NC(=O)c2ccc(F)cc2)CC1 [CBK265198] .
Ans. 88.3

Qu. In one line, give reported viability at 28.5 h, 10 µM of the entry CS(=O)(=O)N(CC(=O)Nc1ccccc1C(=O)N1CCOCC1)c1ccc(F)c(Cl)c1 [CBK267931] .
Ans. 98.1

Qu. In one line, give reported viability at 28.5 h, 10 µM of the entry CCOC(=O)c1sc(-c2c(Cl)cc(C(F)(F)F)cc2Cl)nc1O [CBK078547] .
Ans. 114

Qu. In one line, give reported viability at 28.5 h, 10 µM of the entry O=S(=O)(CC(F)(F)F)Nc1ccc(N2CCNCC2)c2ccccc12 [CBK059354C] .
Ans. 90.6

Qu. In one line, give reported viability at 28.5 h, 10 µM of the entry CCOc1ccccc1C(=O)N1CCC(Cc2ccc(-c3ccccc3)cc2)(C(N)=O)CC1 [CBK285775] .
Ans. 97

Qu. In one line, give reported viability at 28.5 h, 10 µM of the entry Cc1cccnc1NC(=S)NC(=O)c1ccc([N+](=O)[O-])cc1 [CBK263931] .
Ans. 92.9

* * *

Test: in vitro
Settings: human, hela cells, % viability
assayMetric: viability at 28.5 h, 10 µM (%)
Numeric only. Scale: %

Qu. In one line, give reported viability at 28.5 h, 10 µM of the entry Cc1cc(Cl)c(OCCN2CCC(C)CC2)c(Br)c1 [CBK265088G] .
Ans. 78.3

Qu. In one line, give reported viability at 28.5 h, 10 µM of the entry CCCS(=O)(=O)Nc1ccc(=O)n2c1[C@@H]1C[C@@H](CN(C(=O)c3ccc(OC)cc3)C1)C2 .
Ans. 78.3

Qu. In one line, give reported viability at 28.5 h, 10 µM of the entry NNC(=O)COc1ccc2ccccc2c1 .
Ans. 104

Qu. In one line, give reported viability at 28.5 h, 10 µM of the entry O=C(NC(Cc1cccs1)c1nccs1)C1CCOC1 (centres unmarked) .
Ans. 80.6

Qu. In one line, give reported viability at 28.5 h, 10 µM of the entry CC(=O)N1CCc2cc(C)ccc2C12CCN(CCCOc1ccccc1)CC2 .
Ans. 92.4

* * *

Test: in vitro
Settings: human, hela cells, % viability
Hi there, I'd appreciate the recorded viability at 28.5 h, 10 µM for every entry that follows.
Numeric only. Scale: %

Qu. In one line, give reported viability at 28.5 h, 10 µM of the entry CC(=O)NC1(c2ccc(F)cc2)CCN(C(=O)C2CCC2)CC1 [CBK283492] .
Ans. 109

Qu. In one line, give reported viability at 28.5 h, 10 µM of the entry CCOc1cc2c(cc1OCC)C(c1ccc(OC)c(O)c1)NCC2 (centres unmarked) [CBK074443C] .
Ans. 88.7

Qu. In one line, give reported viability at 28.5 h, 10 µM of the entry Cc1cc(Cc2cnc(NC(=O)c3ccncc3)s2)ccc1Br [CBK298304] .
Ans. 106

Qu. In one line, give reported viability at 28.5 h, 10 µM of the entry O=C(O)c1sc2c(ccc3ccccc32)c1Br [CBK018387] .
Ans. 90.4

Qu. In one line, give reported viability at 28.5 h, 10 µM of the entry CC(=O)CSc1nsc(SCC(C)=O)n1 [CBK006702] .
Ans. 89.6

Qu. In one line, give reported viability at 28.5 h, 10 µM of the entry OC(COCc1ccccc1)CN1CCN(Cc2ccccc2)CC1 (centres unmarked) [CBK278297C] .
Ans. 107

Qu. In one line, give reported viability at 28.5 h, 10 µM of the entry CCOC(=O)C1CCN(CC(=O)Nc2ccc(S(N)(=O)=O)cc2)CC1 [CBK266118] .
Ans. 94

Qu. In one line, give reported viability at 28.5 h, 10 µM of the entry O=C(CCn1c(-c2ccccn2)cc2cccnc21)NC1CCCC1 [CBK284965] .
Ans. 98.3

* * *

Experiment: in vitro
Settings: human, hela cells, % viability
Hi there, I'd appreciate the recorded viability at 28.5 h, 10 µM for every entry that follows.
Numeric only. Scale: %

Qu. In one line, give reported viability at 28.5 h, 10 µM of the entry CCOC(=O)c1c(C)n(-c2ccc(C)cc2)c2ccc(Oc3ncccc3C#N)cc12 .
Ans. 109

Qu. In one line, give reported viability at 28.5 h, 10 µM of the entry CN(C)c1ccc(Nc2cc(-c3ccc(OCc4ccccc4)cc3)ncn2)cc1 .
Ans. 113

Qu. In one line, give reported viability at 28.5 h, 10 µM of the entry O=C(NC1CCS(=O)(=O)C1)c1cc2ccc(OC(F)(F)F)cc2[nH]1 (stereo not drawn) .
Ans. 92.4

Qu. In one line, give reported viability at 28.5 h, 10 µM of the entry COc1ccc(Oc2nccnc2N2CCN(CCOc3ccccc3)CC2)cc1OC [CBK083061T] .
Ans. 86.3

Qu. In one line, give reported viability at 28.5 h, 10 µM of the entry O=C(C1CCCCC1)N1CCC(c2n[nH]c3ncccc23)CC1 .
Ans. 85.7

Qu. In one line, give reported viability at 28.5 h, 10 µM of the entry CC(C)Nc1cc(OCc2cccnc2)ncn1 .
Ans. 91.3

Qu. In one line, give reported viability at 28.5 h, 10 µM of the entry COc1ccc([N+](=O)[O-])cc1NC(=O)CSCc1ccc(Br)cc1 .
Ans. 90.9

Qu. In one line, give reported viability at 28.5 h, 10 µM of the entry O=C(CCC(=O)Nc1ccc(F)cc1)N/N=C/c1ccc(O)cc1O .
Ans. 112

Qu. In one line, give reported viability at 28.5 h, 10 µM of the entry CCn1cc(C2CN(S(=O)(=O)c3cc(C)c(OC)cc3C)CCO2)cn1 (stereo not drawn) .
Ans. 84.9

Qu. In one line, give reported viability at 28.5 h, 10 µM of the entry COc1ccc2c(c1OC)C(=O)N(c1ncc(C)s1)C2 .
Ans. 99

Qu. In one line, give reported viability at 28.5 h, 10 µM of the entry Cc1cc(/C=N\NC(=O)c2cc3ccccc3cc2O)c(C)n1-c1ccccc1 .
Ans. 84.6

Qu. In one line, give reported viability at 28.5 h, 10 µM of the entry N#Cc1cccc(-c2cnc(N)c(-c3ccc(O)cc3)n2)c1 .
Ans. 98

Qu. In one line, give reported viability at 28.5 h, 10 µM of the entry O=c1[nH]c2ncc(-c3cccc4ncccc34)nc2n1CCCO .
Ans. 104

Qu. In one line, give reported viability at 28.5 h, 10 µM of the entry O=C(NCc1ccc2occc2c1)C1(c2ccccc2)CCCC1 .
Ans. 116

Qu. In one line, give reported viability at 28.5 h, 10 µM of the entry CN(Cc1ccccc1)c1ncc(-c2ccc(N3CCOCC3)cc2)n2ccnc12 .
Ans. 99.7

Qu. In one line, give reported viability at 28.5 h, 10 µM of the entry Cc1nn(CCC(=O)NCc2ccco2)c(C)c1Cl .
Ans. 88.8

Qu. In one line, give reported viability at 28.5 h, 10 µM of the entry Fc1cccc(SCc2ccccc2)c1 .
Ans. 117

Qu. In one line, give reported viability at 28.5 h, 10 µM of the entry O=C(Nc1snnc1-c1ccc(Cl)cc1)c1ccco1 .
Ans. 102
